# Tested on: CCRIS mutagenicity, Ames/micronucleus/aberration tests
# MEASUREMENT_PROTOCOL: CCRIS mutagenicity studies
# ASSAY_CONDITIONS: Test System: AMES SALMONELLA TYPHIMURIUM; Strain/Indicator: TA100; Metabolic Activation: NONE; Method: FLUCTUATION TEST
Activity calls are given as the source filed them. No rule for the calls is given here.
Classes used: T (active), F (inactive)

{"MOLECULE": "C[C@H](CCC(=O)O)[C@H]1CC[C@H]2[C@@H]3CC[C@@H]4CC(=O)CC[C@]4(C)[C@H]3C[C@@H](O)[C@]12C", "ASSAY_SYSTEM": "CCRIS mutagenicity, Ames/micronucleus/aberration tests", "DISCRETE_LABEL": "F"}
{"MOLECULE": "[O]=[V](=[O])[OH]", "ASSAY_SYSTEM": "CCRIS mutagenicity, Ames/micronucleus/aberration tests", "DISCRETE_LABEL": "T"}
{"MOLECULE": "C[C@H](CCC(=O)O)[C@H]1CC[C@H]2[C@@H]3C(=O)C[C@@H]4CC(=O)CC[C@]4(C)[C@H]3CC[C@]12C", "ASSAY_SYSTEM": "CCRIS mutagenicity, Ames/micronucleus/aberration tests", "DISCRETE_LABEL": "F"}
{"MOLECULE": "C[C@H](CCC(=O)O)[C@H]1CC[C@H]2[C@@H]3[C@@H](O)C[C@@H]4C[C@H](O)CC[C@]4(C)[C@H]3CC[C@]12C", "ASSAY_SYSTEM": "CCRIS mutagenicity, Ames/micronucleus/aberration tests", "DISCRETE_LABEL": "F"}
{"MOLECULE": "N#CCBr", "ASSAY_SYSTEM": "CCRIS mutagenicity, Ames/micronucleus/aberration tests", "DISCRETE_LABEL": "F"}
{"MOLECULE": "N#CC(Cl)(Cl)Cl", "ASSAY_SYSTEM": "CCRIS mutagenicity, Ames/micronucleus/aberration tests", "DISCRETE_LABEL": "T"}
{"MOLECULE": "O=C(O)C(Br)(Br)Br", "ASSAY_SYSTEM": "CCRIS mutagenicity, Ames/micronucleus/aberration tests", "DISCRETE_LABEL": "T"}
{"MOLECULE": "C[C@H](CCC(=O)O)[C@H]1CC[C@H]2[C@@H]3C(=O)C[C@@H]4C[C@H](O)CC[C@]4(C)[C@H]3CC[C@]12C", "ASSAY_SYSTEM": "CCRIS mutagenicity, Ames/micronucleus/aberration tests", "DISCRETE_LABEL": "F"}
{"MOLECULE": "N#CC(Cl)Cl", "ASSAY_SYSTEM": "CCRIS mutagenicity, Ames/micronucleus/aberration tests", "DISCRETE_LABEL": "T"}
{"MOLECULE": "N#CC(Cl)Br (stereo unspecified)", "ASSAY_SYSTEM": "CCRIS mutagenicity, Ames/micronucleus/aberration tests", "DISCRETE_LABEL": "T"}
{"MOLECULE": "OC(O)C(Cl)(Cl)Cl", "ASSAY_SYSTEM": "CCRIS mutagenicity, Ames/micronucleus/aberration tests", "DISCRETE_LABEL": "F"}

###

# System: CCRIS mutagenicity, Ames/micronucleus/aberration tests
# MEASUREMENT_PROTOCOL: CCRIS mutagenicity studies
# ASSAY_CONDITIONS: Test System: AMES SALMONELLA TYPHIMURIUM; Strain/Indicator: YG1025; Metabolic Activation: NONE; Method: PREINCUBATION
# Source text: The CCRIS database contains chemical records with carcinogenicity, mutagenicity, tumor promotion, and tumor inhibition test results. It was developed by the National Cancer Institute (NCI). Data are derived from studies cited in primary journals, current awareness tools, NCI reports, and other sources. Test results have been reviewed by experts in carcinogenesis and mutagenesis. CCRIS provides historical information from the years 1985 - 2011. It is no longer updated. […]
Activity calls are given as the source filed them. How the calls were made is not given here.

{"STRUCTURE_NOTATION": "Nc1ncnc2c1ncn2Cc1ccc([N+](=O)[O-])cc1", "ASSAY_SYSTEM": "CCRIS mutagenicity, Ames/micronucleus/aberration tests", "mutagenic call": "inactive; negative"}
{"STRUCTURE_NOTATION": "Nc1nc(-c2ccc([N+](=O)[O-])cc2)nc2nc[nH]c12", "ASSAY_SYSTEM": "CCRIS mutagenicity, Ames/micronucleus/aberration tests", "mutagenic call": "active; positive"}
{"STRUCTURE_NOTATION": "Nc1nc(-c2ccc([N+](=O)[O-])cc2)nc2c1ncn2[C@@H]1O[C@H](CO)[C@@H](O)[C@H]1O", "ASSAY_SYSTEM": "CCRIS mutagenicity, Ames/micronucleus/aberration tests", "mutagenic call": "active; positive"}
{"STRUCTURE_NOTATION": "Cc1cccn2c1nc1ccc(NO)nc12", "ASSAY_SYSTEM": "CCRIS mutagenicity, Ames/micronucleus/aberration tests", "mutagenic call": "inactive; negative"}
{"STRUCTURE_NOTATION": "Nc1ncnc2c1ncn2-c1ccc([N+](=O)[O-])cc1[N+](=O)[O-]", "ASSAY_SYSTEM": "CCRIS mutagenicity, Ames/micronucleus/aberration tests", "mutagenic call": "inactive; negative"}

###

# System: CCRIS mutagenicity, Ames/micronucleus/aberration tests
# MEASUREMENT_PROTOCOL: CCRIS mutagenicity studies
# ASSAY_CONDITIONS: Test System: AMES SALMONELLA TYPHIMURIUM; Strain/Indicator: TA97; Metabolic Activation: NONE; Method: PREINCUBATION
Active and inactive are the calls of the source. The rule behind the calls is not given here.
Classes used: active, inactive

{"MOLECULE": "CC(C)(CO)[C@@H](O)C(=O)NCCC(=O)O", "DISCRETE_LABEL": "inactive"}
{"MOLECULE": "O=C(O)O", "DISCRETE_LABEL": "inactive"}
{"MOLECULE": "C=CCOC(=O)CCCCC", "DISCRETE_LABEL": "inactive"}
{"MOLECULE": "C=CCC1(C(C)C#CCC)C(=O)N=C(O)N(C)C1=O (stereo not given)", "DISCRETE_LABEL": "inactive"}
{"MOLECULE": "Cc1c2c(cc3ccccc13)-c1ccccc1C1NC21 (stereo not given)", "DISCRETE_LABEL": "active"}
{"MOLECULE": "C1CCC(NC2CCCCC2)CC1", "DISCRETE_LABEL": "inactive"}
{"MOLECULE": "COC(=O)CCC(=O)OC", "DISCRETE_LABEL": "inactive"}
{"MOLECULE": "CN(C)c1ccc(N=Nc2ccccc2)cc1", "DISCRETE_LABEL": "inactive"}
{"MOLECULE": "CC(C)(C#N)C(C)(C)C#N", "DISCRETE_LABEL": "inactive"}
{"MOLECULE": "CC(=O)c1ccccc1", "DISCRETE_LABEL": "inactive"}
{"MOLECULE": "CN1C(=O)CN=C(c2ccccc2)c2cc(Cl)ccc21", "DISCRETE_LABEL": "inactive"}
{"MOLECULE": "O=C(OCC1CO1)c1cccc(C(=O)OCC2CO2)c1 (stereo not given)", "DISCRETE_LABEL": "active"}
{"MOLECULE": "S=C(NC1CCCCC1)NC1CCCCC1", "DISCRETE_LABEL": "inactive"}
{"MOLECULE": "CCS(=O)CCSP(=O)(OC)OC (stereo not given)", "DISCRETE_LABEL": "inactive"}
{"MOLECULE": "Nc1cccc(S(=O)(=O)O)c1", "DISCRETE_LABEL": "inactive"}

###

# Tested on: CCRIS mutagenicity, Ames/micronucleus/aberration tests
# MEASUREMENT_PROTOCOL: CCRIS mutagenicity studies
# ASSAY_CONDITIONS: Test System: AMES SALMONELLA TYPHIMURIUM; Strain/Indicator: TA100; Metabolic Activation: NONE; Method: STANDARD PLATE
Activity calls are given as the source filed them. The rule behind the calls is not given here.
Classes used: active, inactive

{"STRUCTURE_NOTATION": "COc1ccc(O)cc1", "DISCRETE_LABEL": "inactive"}
{"STRUCTURE_NOTATION": "Cc1cccn2c(=O)c(-c3nnn[nH]3)cnc12", "DISCRETE_LABEL": "inactive"}
{"STRUCTURE_NOTATION": "Nc1ccc([N+](=O)[O-])c(O)c1", "DISCRETE_LABEL": "inactive"}
{"STRUCTURE_NOTATION": "Nc1ccc2c(c1)Cc1cc(N)ccc1-2", "DISCRETE_LABEL": "inactive"}
{"STRUCTURE_NOTATION": "CC(C)N(C(=O)SC/C(Cl)=C/Cl)C(C)C", "DISCRETE_LABEL": "inactive"}
{"STRUCTURE_NOTATION": "O=CNc1ccc(Oc2ccc(Cl)cc2)cc1", "DISCRETE_LABEL": "inactive"}
{"STRUCTURE_NOTATION": "c1ccc2c(c1)-c1cc3ccccc3cc1[C@@H]1N[C@H]21", "DISCRETE_LABEL": "active"}

From: PubChem BioAssay AID1259407
